Each entry below carries its recorded inhibition.
- SYSTEM_TESTED: Muscarinic acetylcholine receptor M1 (Homo sapiens) (UniProt P11229)
- Sequence (P11229 whole entry, looked up): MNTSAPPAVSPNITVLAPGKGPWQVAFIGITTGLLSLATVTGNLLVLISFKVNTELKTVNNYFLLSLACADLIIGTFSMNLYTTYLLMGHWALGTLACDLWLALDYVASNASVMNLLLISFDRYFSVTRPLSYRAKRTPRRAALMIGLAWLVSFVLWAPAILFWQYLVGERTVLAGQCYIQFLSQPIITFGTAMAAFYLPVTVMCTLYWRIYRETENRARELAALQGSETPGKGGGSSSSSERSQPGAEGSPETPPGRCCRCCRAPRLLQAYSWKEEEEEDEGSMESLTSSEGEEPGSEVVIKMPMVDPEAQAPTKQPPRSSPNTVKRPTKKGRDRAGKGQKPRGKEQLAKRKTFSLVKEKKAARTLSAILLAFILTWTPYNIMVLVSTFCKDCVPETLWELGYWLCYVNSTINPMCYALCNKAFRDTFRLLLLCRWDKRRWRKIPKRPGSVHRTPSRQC
- EXPERIMENT_DESCRIPTION: CHRM1 blockers of acetylcholine calcium response – CHO-K1 cells, Fluo-8 calcium fluorescence, 1536-well, primary screen (AID 588852);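 also: peak over basal fluorescence ratio during 140 s after agonist addition; 0% = ACh EC80 plus DMSO and 100% = DMSO alone without agonist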
- TEST_CONDITIONS: CHO-K1 hM1, Fluo-8 calcium fluorescence, ACh EC80 antagonist; at 3 µM; active compounds read high
In all, about 360,000 compounds went through this assay and about 4,600 (1.3%) were called active. Shown is part of a subset that was picked to be rich in actives.
Kindly answer with a numeric value in %, unit omitted.

>>> readout_number("CCCCOc1ccc(C(=O)NN2CCN(C)CC2)cc1")
44.4
>>> readout_number("Cc1ccc(OCCCCN2CCCCC2)c(Br)c1")
22.6
>>> readout_number("COC(=O)c1ccc2nc(-c3cccc(Br)c3)c(Cc3ccc(OC)cc3C)n2c1")
-41.3
>>> readout_number("O=C(NCC(=O)N(Cc1cccs1)C(C(=O)NC1CCCCC1)c1ccco1)c1cccs1 (stereo unspecified)")
35.6

For the compound Cc1cc([N+](=O)[O-])nn1CC(=O)Nc1ccc(Cc2ccncc2)cc1 , give its reported inhibition.
28.3

Look up and state reported inhibition for CC(C)CC(=O)Nc1ccc(Cc2ccncc2)cc1
-16.9

Report inhibition for C/C(=N\NC(=O)NC1CCCCC1)c1ccc(OC(F)F)cc1OC(F)F
3.51

Dear colleague, please send me the reported inhibition for c1ccc2cc(OCCN3CCCC3)ccc2c1 when you can.
-1.41

Note down inhibition recorded for CCCCNc1c(-c2cccc(Sc3ccc(OC)cc3)c2)nc2ccccn12
36.9

Determine from records and report inhibition for Cc1ccc(C(C)C)cc1OCCN1CCCC1
53

Identify the reported inhibition for the following entry. CC1CN(S(=O)(=O)c2ccc(C(=O)NN3CCN(C)CC3)cc2)CC(C)O1 (stereo unspecified)
9.23

---

- SYSTEM_TESTED: Muscarinic acetylcholine receptor M1 (Homo sapiens)
- EXPERIMENT_DESCRIPTION: CHRM1 blockers of acetylcholine calcium response – CHO-K1 cells, Fluo-8 calcium fluorescence, 1536-well, primary screen (AID 588852);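 also: peak over basal fluorescence ratio during 140 s after agonist addition; 0% = ACh EC80 plus DMSO and 100% = DMSO alone without agonist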
- TEST_CONDITIONS: CHO-K1 hM1, Fluo-8 calcium fluorescence, ACh EC80 antagonist; at 3 µM; active compounds read high
Hit rate of the full screen: of about 360,000 compounds, about 4,600 (1.3%) were called active. The list comes from a sample in which actives are over-represented; it also holds close analogues and randomly drawn compounds.
OBSERVED_PROPERTY: inhibition (%)
# number only, unit % dropped from output

Look over these answered cases.
>>> readout_number("Cc1ccc([C@H]2N[C@]3(CCCN(Cc4ccccc4)C3=O)[C@H]3C(=O)N(Cc4ccccc4)C(=O)[C@@H]23)cc1")
-11.4
>>> readout_number("COc1ccc(Cl)cc1-c1cc(C(=O)Nc2cc(OC)c(OC)c(OC)c2)[nH]n1")
0.33
>>> readout_number("CCOc1ccc(NC(=O)CN(C)C(=O)c2cccc(S(=O)(=O)N3CCCC3)c2)cc1OCC")
7.19

Provide one value: measured inhibition of Cc1ccc(S(=O)(=O)Nc2ccc3ncccc3c2)cc1
28.8

Give recorded inhibition. COC(=O)C1=C(C)NC(=O)/C1=C/c1ccc(CNS(=O)(=O)c2ccc(C)cc2)o1
8.24

Provide one value: measured inhibition of COc1ccc(NC(=O)COC(=O)C2COc3ccccc3O2)cc1 (stereo not drawn)
-2.48

State, in one line, measured inhibition of CN(CCOc1ccccc1)Cc1nc2cc(Cl)ccc2c(=O)[nH]1
-3.58

Retrieve inhibition measured for Cc1ccccc1OCC(=O)NNC(=O)c1cc(S(=O)(=O)N(C)C)ccc1N1CCCC1 and print it.
-9.89

Give a short answer stating reported inhibition for COc1ccc(C2CC(c3cccs3)=NN2C(=O)COC(=O)c2cc3ccccc3cc2O)cc1OC (stereo not drawn) .
-1.73

Retrieve inhibition measured for CCC(C)NCCOCCOc1ccc(Br)cc1C (stereo not drawn) and print it.
34.6

Given the compound COc1ccc(C(=O)OCC(=O)NCCCc2ccccc2)cc1OC , write its reported inhibition.
-14.8

Hello, please tell me recorded inhibition for this one: O=S1(=O)CC(N2CCN(CCO)CC2)CN1C1CCCC1 (stereo not drawn)
-4.22

Quickly give me recorded inhibition for CC(O)(c1cccc(F)c1)c1nc(-c2ccc3c(c2)OCO3)cs1 (stereo not drawn)
1.89

Return inhibition for the following compound: COc1ccccc1NC(=S)N1CCN(c2ccc(F)cc2)CC1
-20.2

Specify inhibition for COc1ccccc1NC(=S)N1CCC(NC(=O)C23CC4CC(CC(C4)C2)C3)CC1 and stop.
-7.97

Please give measured inhibition of the following entry: CN(C(=O)CN1CCN(c2cc(-c3ccc(OCc4ccccc4)cc3)ncn2)CC1)c1ccccc1
30.1

Given the compound O=C(c1ccccc1Oc1ccccc1)N1CCN(c2ccc(F)cc2)CC1 , write its reported inhibition.
4.1

Hello, please tell me recorded inhibition for this one: CCS(=O)(=O)Nc1ccc(C2=NN(S(=O)(=O)c3ccc(F)cc3)C(c3ccco3)C2)cc1 (stereo not drawn)
-7.75

In one line, give reported inhibition of the entry CC(C)NC(=O)NCCCCCCS(C)=O (stereo not drawn) .
-12
